This collection of values is drawn from patent US20240140931A1.

target: Human full-length SHP2 recombinant protein (Homo sapiens (Human), UniProt Q06124); assay: Assay of full-length SHP2 phosphatase activity; conditions: DiFMUP substrate, with activating peptide
Sequence (Q06124 whole entry): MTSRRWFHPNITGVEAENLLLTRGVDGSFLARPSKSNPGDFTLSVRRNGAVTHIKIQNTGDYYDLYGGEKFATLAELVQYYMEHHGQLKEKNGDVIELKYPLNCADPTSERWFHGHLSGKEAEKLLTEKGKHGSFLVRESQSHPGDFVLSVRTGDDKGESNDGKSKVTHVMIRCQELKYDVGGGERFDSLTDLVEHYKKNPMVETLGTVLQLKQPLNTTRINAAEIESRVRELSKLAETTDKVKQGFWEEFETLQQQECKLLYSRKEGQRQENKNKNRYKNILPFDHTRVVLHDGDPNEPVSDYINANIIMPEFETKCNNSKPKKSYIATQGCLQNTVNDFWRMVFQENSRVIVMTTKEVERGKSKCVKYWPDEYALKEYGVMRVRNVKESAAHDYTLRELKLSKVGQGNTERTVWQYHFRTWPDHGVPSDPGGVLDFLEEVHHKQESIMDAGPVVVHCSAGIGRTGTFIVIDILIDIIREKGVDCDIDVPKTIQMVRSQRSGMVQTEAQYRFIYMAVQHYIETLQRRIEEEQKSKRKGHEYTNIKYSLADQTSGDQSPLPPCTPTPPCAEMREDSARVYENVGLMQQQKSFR
Quick reference: pIC50 of the listed items.
pIC50 (log units): -log10 of the concentration in mol/L.

Below: 2 compounds and their reported pIC50.
>>> print(df.to_string())
                                   compound  measuredproperty  obsvalue
0  C#Cc1ccc2c(c1)[C@@H](N)C1(CCN(c3cc(=O)n(-c4ccccc4Cl)c(C)n3)CC1)C2 (single isomer, unassigned) [Compound 57]             pIC50      7.55
1  C#Cc1ccc2c(c1)CC1(CCN(c3cc(=O)n(-c4cccc(Cl)c4)c(C)n3)CC1)[C@@H]2N             pIC50      6.80

Which pIC50 reading was recorded for the compound `CCNC(=O)C#Cc1ccc2c(c1)[C@@H](N)C1(CCN(c3cnc(Sc4cccnc4Cl)c(N)n3)CC1)C2` ?
8.89

Any idea what pIC50 was measured for C#Cc1ccc2c(c1)CC1(CCN(c3cc(=O)n(-c4cccc(Cl)c4Cl)c(C)n3)CC1)[C@@H]2N (atropisomer, axis not shown) [Compound 20] ?
7.92

* * *

molecular target: Human full-length SHP2 recombinant protein (Homo sapiens (Human)); assay: Assay of full-length SHP2 phosphatase activity; conditions: DiFMUP substrate, with activating peptide
Attribute: pIC50
# reply with the number alone; pIC50 is -log10 of concentration in mol/L

>>> print(df.to_string())
                                   compound  measuredproperty  obsvalue
0  C#Cc1ccc2c(c1)[C@@H](N)C1(CCN(c3cc(=O)n(-c4cccc(C(F)(F)F)c4Cl)c(C)n3)CC1)C2 (atropisomer, axis not shown) [Compound 119]             pIC50      6.75

What value of measured pIC50 is listed for COCC#Cc1ccc2c(c1)[C@@H](N)C1(CCN(c3cc(=O)n(-c4ccc(F)c(Cl)c4Cl)c(C)n3)CC1)C2 (atropisomer, axis not shown) [Compound 124] ?
8.89

For the compound COCCSc1ccc2c(c1)[C@@H](N)C1(CCN(c3ncc(Sc4ccnc(N)n4)c4nccn34)CC1)C2 [Compound 98] , what pIC50 is on record?
8.52

* * *

Recorded log10 IC50 values for a group of compounds are listed next.
biological target: Human full-length SHP2 recombinant protein (Homo sapiens (Human)); test: Assay of full-length SHP2 phosphatase activity; details: DiFMUP substrate, with activating peptide
Please be aware that the numbers have been log10-transformed from IC50 in nM.

Consider the following illustrative entries.
>>> print(df.to_string())
                                   compound                              testedtarget  measuredproperty  obsvalue
0  C#Cc1ccc2c(c1)[C@@H](N)C1(CCN(c3cc(=O)n(-c4cccc(Cl)c4F)c(C)n3)CC1)C2 [Compound 16]  Human full-length SHP2 recombinant protein (Homo sapiens (Human))        log10 IC50      0.60
1  Cc1nc(Sc2ccnc(N)c2Cl)c(N)nc1N1CCC2(CC1)Cc1ccc(C#CC(=O)O)cc1[C@H]2N  Human full-length SHP2 recombinant protein (Homo sapiens (Human))        log10 IC50      0.00
2  CCNC(=O)C#Cc1ccc2c(c1)[C@@H](N)C1(CCN(c3cnc(Sc4ccnc(N)c4Cl)cn3)CC1)O2  Human full-length SHP2 recombinant protein (Homo sapiens (Human))        log10 IC50      0.00
3  C#Cc1ccc2c(c1)[C@@H](N)C1(CCN(c3cc(=O)n(-c4ccccc4Cl)c(C)n3)CC1)C2 (single isomer, unassigned) [Compound 56]  Human full-length SHP2 recombinant protein (Homo sapiens (Human))        log10 IC50      0.30

Item `C#Cc1cc2c(cc1F)CC1(CCN(c3cc(=O)n(-c4cccc(Cl)c4Cl)c(C)n3)CC1)[C@@H]2N` has what recorded log10 IC50?
2.31

GET /values?readout=log10 IC50&item= `COCC#Cc1ccc2c(c1)[C@@H](N)C1(CCN(c3cnc(Sc4ccnc(N)c4Cl)c(N)n3)CC1)C2`
0.30

Query: log10 IC50; subject: COCC#Cc1ccc2c(c1)[C@@H](N)C1(CCN(c3cc(=O)n(-c4ccc(F)c(OC)c4Cl)c(C)n3)CC1)C2 (atropisomer, axis not shown) [Compound 163]
0.00

Look up log10 IC50 for this compound: `COCC#Cc1ccc2c(c1)[C@@H](N)C1(CCN(c3cnc(Sc4ccnc(N)n4)c(N)n3)CC1)C2`
0.30

Dear colleague, I am looking for the recorded log10 IC50 of the following compound: C#Cc1ccc2c(c1)[C@@H](N)C1(CCN(c3cc(=O)n(-c4ccc(F)c(OC)c4Cl)c(C)n3)CC1)C2 (atropisomer, axis not shown) [Compound 162]
1.53

Returns the measured log10 IC50 for the input compound. Input: `C#Cc1ccc2c(c1)[C@@H](N)C1(CCN(c3cc(=O)n(-c4ccc(F)cc4F)c(C)n3)CC1)C2`
1.32

Please report the recorded log10 IC50 for `CCNC(=O)C#Cc1ccc2c(c1)[C@@H](N)C1(CCN(c3ncc(N4CCCc5ncccc54)nc3C)CC1)C2` .
1.00

Quick check: log10 IC50 of `C#Cc1ccc2c(c1)[C@@H](N)C1(CCN(c3ncc(Sc4ccnc(N)c4Cl)c4nccn34)CC1)C2` ?
0.48

Requested read-out: log10 IC50. Entry: `C#Cc1ccc2c(c1)[C@@H](N)C1(CCN(c3cc(=O)n(-c4cc(F)cc(F)c4)c(C)n3)CC1)C2`
1.41

Find the recorded log10 IC50 belonging to `C#Cc1ccc2c(c1)[C@@H](N)C1(CCN(c3cc(=O)n(-c4ccc(C#N)c(F)c4Cl)c(C)n3)CC1)C2` and report it.
1.20

What value of log10 IC50 has been reported for the following compound? `CNCC#Cc1ccc2c(c1)[C@@H](N)C1(CCN(c3ncc(Sc4ccnc(N)c4Cl)c4nccn34)CC1)C2`
-0.15

For the compound CC#Cc1ccc2c(c1)[C@@H](N)C1(CCN(c3cc(=O)n(-c4ccc(F)c(OC)c4Cl)c(C)n3)CC1)C2 (atropisomer, axis not shown) [Compound 208] , what log10 IC50 is on record?
1.76

Which measured log10 IC50 value corresponds to `CCNC(=O)C#Cc1ccc2c(c1)[C@@H](N)C1(CCN(c3ncc(Sc4ccnc(N)c4Cl)nc3C)CC1)O2` ?
0.60

Quick one: log10 IC50 of `Cc1nc(N2CCC3(CC2)Cc2ccc(C#CCOC(C)(C)C)cc2[C@H]3N)cc(=O)n1-c1cccc(Cl)c1Cl` ?
0.70

For the compound shown here, `CCNC(=O)C#Cc1ccc2c(c1)[C@@H](N)C1(CCN(c3ncc(Sc4ccnc(N)c4Cl)nn3)CC1)C2` , give the reported log10 IC50.
0.00

Need log10 IC50 of `C#Cc1ccc2c(c1)CC1(CCN(c3ncc(Sc4ccnc(N)c4Cl)c4nccn34)CC1)[C@@H]2N` , thanks.
0.30

// log10 IC50 lookup, key: C#Cc1ccc2c(c1)[C@@H](N)C1(CCN(c3cc(=O)n(-c4ccc(F)c(Cl)c4Cl)c(C)n3)CC1)C2 (atropisomer, axis not shown) [Compound 108]
0.00
